Recorded EC50 for the following compounds
# assayed-system: Vanilloid receptor (Rattus norvegicus, UniProt Q9ERZ8+Q9WUD2+O35433)
# method-notes: In vitro effective concentration for [Ca2+] uptake into dorsal root ganglia neurones in culture
# Type: functional
Entry rule: numbers only, all in µM.

Query block: Please indicate EC50 recorded for COc1cc(CNC(=O)/C=C/c2ccccc2)ccc1O
Result block: 11.8

====

# assayed-system: Vanilloid receptor (Rattus norvegicus, UniProt Q9ERZ8+Q9WUD2+O35433)
# method-notes: In vitro effective concentration for Ca++ uptake into dorsal root ganglia neurones in culture
# Type: functional
log10 EC50 for assorted compounds
Reminder: these figures are log10 of reported EC50, in µM before transformation.

Reference set, count: 4
>  <sample-smiles>
CCCCCCCCCC/N=C(\S)NCc1ccc(O)c(OC)c1

>  <assayed-system>
Vanilloid receptor (Rattus norvegicus, UniProt Q9ERZ8+Q9WUD2+O35433)

>  <numeric-result>
-0.96

$$$$
>  <sample-smiles>
CCCCCCCCCCCCCCCCCC/N=C(\S)NCc1ccc(O)c(OC)c1

>  <assayed-system>
Vanilloid receptor (Rattus norvegicus, UniProt Q9ERZ8+Q9WUD2+O35433)

>  <numeric-result>
0.91

$$$$
>  <sample-smiles>
CCCCCCCCCCCC/N=C(\S)NCc1ccc(O)c(OC)c1

>  <assayed-system>
Vanilloid receptor (Rattus norvegicus, UniProt Q9ERZ8+Q9WUD2+O35433)

>  <numeric-result>
-0.80

$$$$
>  <sample-smiles>
COc1cc(CNC(=O)CCc2ccc(N=[N+]=[N-])cc2)ccc1O

>  <assayed-system>
Vanilloid receptor (Rattus norvegicus, UniProt Q9ERZ8+Q9WUD2+O35433)

>  <numeric-result>
0.62

$$$$

Query block: Please indicate log10 EC50 recorded for CCCCCCCCC/N=C(\S)NCc1ccc(O)c(OC)c1
Result block: -1.00

Query block: Look up and report measured log10 EC50 for this entry: CCCCCCC/N=C(\S)NCc1ccc(O)c(OC)c1
Result block: -0.54

Query block: Look up and state reported log10 EC50 for COc1cc(CNC(=O)/C=C/c2ccc([N+](=O)[O-])cc2)ccc1O
Result block: 0.66

====

# assayed-system: Vanilloid receptor (Rattus norvegicus, UniProt Q9ERZ8+Q9WUD2+O35433)
# method-notes: In vitro effective concentration for [Ca2+] uptake into dorsal root ganglia neurones in culture
# Type: functional
Reported EC50 by item:
The reply should be a number in µM, with the unit left off.

Query block: Look up Vanilloid receptor (Rattus norvegicus, UniProt Q9ERZ8+Q9WUD2+O35433) data: EC50 of COc1cc(CNC(=O)/C=C/c2ccc(I)cc2)ccc1O , then report it.
Result block: 0.35

Query block: Using Vanilloid receptor (Rattus norvegicus, UniProt Q9ERZ8+Q9WUD2+O35433) as the test system, report measured EC50 of COc1cc(C/N=C(\S)NC2[C@H]3C[C@@H]4C[C@@H](C[C@H]2C4)C3)ccc1O (stereo partly specified) .
Result block: 1.08

====

# assayed-system: Vanilloid receptor (Rattus norvegicus, UniProt Q9ERZ8+Q9WUD2+O35433)
# method-notes: In vitro effective concentration for Ca++ uptake into dorsal root ganglia neurones in culture
# Type: functional
attribute-measured: EC50

Solved cases below.
>  <molecule>
COc1cc(CNC(=O)CBr)ccc1O

>  <EC50>
> 100 µM

$$$$
>  <molecule>
CCCCCCCCCCCCCCCC/N=C(\S)NCc1ccc(O)c(OC)c1

>  <EC50>
> 100 µM

$$$$

Query block: Note EC50 for the molecule shown: CCCCCCCC/C=C\CCCCCCCC(=O)NCc1ccc(O)c(OC)c1 [OLVANIL]
Result block: 0.17 µM

====

# assayed-system: Vanilloid receptor (Rattus norvegicus, UniProt Q9ERZ8+Q9WUD2+O35433)
# method-notes: In vitro effective concentration for [Ca2+] uptake into dorsal root ganglia neurones in culture
# Assay type: functional
Recorded measurements of EC50, one per entry
Expressed in µM, but write only the number.

>  <molecule>
COc1cc(CNC(=O)CCCCCCC(C)C)ccc1O [DIHYDROCAPSAICIN]

>  <unit-of-measurement>
µM

>  <EC50>
0.19

$$$$
>  <molecule>
COc1cc(CC(=O)NCCc2ccc(Cl)cc2)ccc1O

>  <unit-of-measurement>
µM

>  <EC50>
0.66

$$$$
>  <molecule>
COc1cc(CNC(=O)/C=C/c2ccc(Cl)cc2)ccc1O

>  <unit-of-measurement>
µM

>  <EC50>
1.24

$$$$
>  <molecule>
COc1cc(CNC(=O)CCCCCNC(=O)OC(C)(C)C)ccc1O

>  <unit-of-measurement>
µM

>  <EC50>
79.8

$$$$
>  <molecule>
COc1cc(CNC(=O)CCc2ccc([N+](=O)[O-])cc2)ccc1O

>  <unit-of-measurement>
µM

>  <EC50>
21

$$$$

Query block: Determine from records and report EC50 for CCCC/N=C(\S)NCc1ccc(O)c(OC)c1
Result block: 9.48

Query block: Note down EC50 recorded for COc1cc(CNC(=O)/C=C/c2ccc(N(C)C)cc2)ccc1O
Result block: 4.39

Query block: Give reported EC50 value for COc1cc(CNC(=O)/C=C/c2ccc(-c3ccccc3)cc2)ccc1O
Result block: 0.24

====

# assayed-system: Vanilloid receptor (Rattus norvegicus, UniProt Q9ERZ8+Q9WUD2+O35433)
# method-notes: In vitro effective concentration for [Ca2+] uptake into dorsal root ganglia neurones in culture
# Assay type: functional
attribute-measured: EC50

See these solved cases before continuing.
>  <sample-smiles>
COCCOCC(=O)NCc1ccc(O)c(OC)c1

>  <EC50>
> 100 µM

$$$$
>  <sample-smiles>
CCCCC/N=C(\S)NCc1ccc(O)c(OC)c1

>  <EC50>
1.96 µM

$$$$

Query block: Fill in reported EC50 for this entry: COc1cc(CNC(=O)/C=C/c2ccc(NC=O)cc2)ccc1O
Result block: 1000 µM

Query block: Query EC50 for COCCOCCOCC(=O)NCc1ccc(O)c(OC)c1
Result block: > 100 µM

Query block: Hello, please tell me recorded EC50 for this one: COc1cc(CNC(=O)C#Cc2ccc(Cl)cc2)ccc1O
Result block: 4.1 µM

Query block: State its EC50 for this compound: CCCCCC/N=C(\S)NCc1ccc(O)c(OC)c1
Result block: 0.18 µM

Query block: Indicate the recorded EC50 value for this compound: COc1cc(CNC(=O)/C=C/c2ccc(C#N)cc2)ccc1O
Result block: 26.5 µM

Query block: Output measured EC50 for this item: COc1cc(C/N=C(/N)S)ccc1O
Result block: > 100 µM

Query block: Return the recorded EC50 value; entry: COc1cc(CNC(=O)Cc2ccc(Cl)cc2)ccc1O
Result block: 7.77 µM

====

# assayed-system: Vanilloid receptor (Rattus norvegicus, UniProt Q9ERZ8+Q9WUD2+O35433)
# method-notes: In vitro effective concentration for Ca++ uptake into dorsal root ganglia neurones in culture
# Assay type: functional
attribute-measured: EC50

Would you please look over these solved cases?
>  <sample-smiles>
CCCCCCCC/C=C/CCCCCCCC(=O)NCc1ccc(O)c(OC)c1

>  <assayed-system>
Vanilloid receptor (Rattus norvegicus, UniProt Q9ERZ8+Q9WUD2+O35433)

>  <EC50>
0.36 µM

$$$$
>  <sample-smiles>
COc1cc(CNC(=O)CCCCCCCCCCC(=O)O)ccc1O

>  <assayed-system>
Vanilloid receptor (Rattus norvegicus, UniProt Q9ERZ8+Q9WUD2+O35433)

>  <EC50>
> 100 µM

$$$$

Moving on to another compound below.
Query block: Complete the entry with EC50 for CCCCCCCCCCCCCCCCCC(=O)NCc1ccc(O)c(OC)c1
Result block: > 100 µM
